This collection of values is drawn from paper PMC4072508.

- assayed system: T1, Mcl-1, Q07820
- T1 chain: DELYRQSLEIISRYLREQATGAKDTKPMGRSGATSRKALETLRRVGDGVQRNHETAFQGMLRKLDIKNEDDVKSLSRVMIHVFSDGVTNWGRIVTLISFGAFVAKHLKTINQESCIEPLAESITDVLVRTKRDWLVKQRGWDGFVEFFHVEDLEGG
- procedure text: peptide SPOT array, c-Myc-tagged receptor at 1 uM or 100 nM, anti-c-Myc-Cy3
property: SPOT signal as a fraction of Bim BH3's signal on the same receptor and array
Provide a numeric answer; units are not to be included.

Before answering, review these 10 worked examples.
INSERT INTO measurements (binder, experimental_result) VALUES
  ('LFWTPLLVVLLAGLGDTEAQQTTLHP [SGCA]', 0.04),
  ('ERLKGQLCDVDLIVGDQKFRAHKNVL [ZNF295]', 0.08),
  ('LEGFRKNEEVLKRCAQEYLSRVKKEE [TACC2]', 0.04),
  ('LDFTFVCPTEIIAFGDRLEEFRSINT', 0.04),
  ('MRSQLGKATADAIMGDKLWWADQVSE [LRP1]', 0.16),
  ('CGEWTRRSLHLRVLGRQLILPTDKGV [FAM149A]', 0.76),
  ('PESTKRSALCIFKIARKLLFLFRIKE [UBE3B]', 0.1),
  ('VEQFSEASQQMAELLEVLVLRLENYE [HAP1]', 0.02),
  ('HHSSQEMSSEYREYADSFGKCPGGRN [PCYT2]', 0.04),
  ('LDFTFVCPTEDIAFGDRLEEFRSINT', 0.04);

Input PAKKMTLSEIDRWICDNFPYYKNAGI [FOXJ2] . Output SPOT signal as a fraction of Bim BH3's signal on the same receptor and array: 0.29

Input YTCRGHIPGFLQTTADEFCFYYARKD [HHIP] . Output SPOT signal as a fraction of Bim BH3's signal on the same receptor and array: 0.04

Input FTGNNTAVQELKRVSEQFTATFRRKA [TUBB4Q] . Output SPOT signal as a fraction of Bim BH3's signal on the same receptor and array: 0.41

Input MSILTIASAVDEFVGDGIYNNTMGHV [TAP1] . Output SPOT signal as a fraction of Bim BH3's signal on the same receptor and array: 0.04

Input FMEKLDNGALLCQLAETMQEKFKESM [GAS2] . Output SPOT signal as a fraction of Bim BH3's signal on the same receptor and array: 0.02

Input SFLSAHCASHLAWFLDSLTSLSQRLQ [TMEM214] . Output SPOT signal as a fraction of Bim BH3's signal on the same receptor and array: 0.07

Input SEDHFRAAYLLKDVAKEAYQDVAFTQ [BNC1] . Output SPOT signal as a fraction of Bim BH3's signal on the same receptor and array: 0.02

Input GAQHSTMTSTLRRLGEDIFKGVVTKG [CCDC138] . Output SPOT signal as a fraction of Bim BH3's signal on the same receptor and array: 0.43
